# key: entry, value: pIC50
TEST_TARGET: Mouse ERK2 protein (Mus musculus (Mouse), UniProt P63085)
Sequence (P63085 whole entry): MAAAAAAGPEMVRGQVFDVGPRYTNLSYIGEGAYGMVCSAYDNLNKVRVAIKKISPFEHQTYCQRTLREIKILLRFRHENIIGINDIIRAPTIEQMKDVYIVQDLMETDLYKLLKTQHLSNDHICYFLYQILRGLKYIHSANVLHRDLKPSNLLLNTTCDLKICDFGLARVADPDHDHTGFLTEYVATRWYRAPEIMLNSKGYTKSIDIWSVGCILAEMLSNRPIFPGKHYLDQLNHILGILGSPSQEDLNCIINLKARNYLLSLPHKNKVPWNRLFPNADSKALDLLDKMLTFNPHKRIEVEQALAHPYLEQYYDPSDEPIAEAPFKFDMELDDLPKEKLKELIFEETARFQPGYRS
TEST_METHOD_NOTES: Coupled MEK1/ERK2 IMAP assay or Active ERK2 IMAP assay
Format: biochemical
CONDITION_NOTES: Table 1, class symbols, 30 μM ATP
pIC50: −log10 of the molar value.
REPORTED_ENDPOINT: pIC50

1) O=C(C(CO)c1ccccc1)N1CCc2[nH]nc(-c3ccncc3)c2C1 (centres unmarked); 4.00 to 6.00
2) O=C(N[C@@H]1CCCN(Cc2ccccc2C(F)(F)F)C1)N1CCc2[nH]nc(-c3ccncc3)c2C1; 7.00 to 7.68
3) CC1(C(=O)N[C@H]2CNC[C@@H]2c2ccccc2)CCc2[nH]nc(-c3ccncc3)c2C1 (mixture of isomers); 6.00 to 7.00
4) CC1CC(NC(=O)N2CCc3[nH]nc(-c4ccncc4)c3C2)CN(Cc2ccccc2F)C1 (centres unmarked); 7.00 to 7.68
5) Cc1nc2ccc(-c3n[nH]c4c3CN(C(=O)N[C@@H]3CCCN(Cc5c(F)cccc5F)C3)CC4)cc2o1; 6.00 to 7.00
6) O=C(NC1CN(Cc2c(F)cccc2F)CCC1F)N1CCc2[nH]nc(-c3ccc4nccn4c3)c2C1 (mixture of isomers); 6.00 to 7.00
7) COc1cccc(F)c1CN1CC2CC(NC(=O)N3CCc4[nH]nc(-c5ccncc5)c4C3)C1C2 (centres unmarked); 6.00 to 7.00
8) Cc1cc(-c2n[nH]c3c2CN(C(=O)NC2(C)CCCN(Cc4c(F)cccc4F)C2)CC3)ccn1 (centres unmarked); 6.00 to 7.00
9) Cc1ccc(C2CN(C)CC2NC(=O)N2CCc3[nH]nc(-c4ccncc4)c3C2)cc1 (racemic); > 7.70
10) COc1ccc(-c2n[nH]c3c2CN(C(=O)N[C@@H]2CCCN(Cc4c(F)cccc4F)C2)CC3)cc1F; 7.00 to 7.68
11) Cc1cc(-c2n[nH]c3c2CN(C(=O)NC2CC(C)CN(Cc4c(C)cccc4C)C2)CC3)ccn1 (centres unmarked); 7.00 to 7.68
